Recorded GI50 values for a group of compounds are listed next.
- Tested on: SK-MEL-28
- Experiment notes: NCI tumour cell line growth inhibition, 48 h
The source made the active and inactive calls. Rule as the data show it: active = GI50 up to about 1.1 µM and inactive = higher.
Endpoint label: GI50

[[record]]
compound = "C/C(=C\\CNc1nc(Cl)nc2[nH]cnc12)CO"
measured_value = "> 100 µM (inactive)"

[[record]]
compound = "CC(=O)Oc1cc2c(cc1OC(C)=O)C1(C)CCC2(C)c2cc(OC(C)=O)c(OC(C)=O)cc21"
measured_value = "21.4 µM (inactive)"

[[record]]
compound = "COc1cc2c(cc1OC)c1c(OC)c(OC)cc3c1c1c2sc(=S)n1CC3"
measured_value = "46.9 µM (inactive)"

[[record]]
compound = "COC1(OC)C2(Cl)C(Cl)=C(Cl)C1(Cl)C1COCC12 (stereo unspecified)"
measured_value = "> 38.7 µM (inactive)"

[[record]]
compound = "O=C1c2ccccc2-c2cccc3ccc(Cc4ccc5ccccc5c4)c1c23"
measured_value = "> 100 µM (inactive)"

[[record]]
compound = "O=C(CN1CCOCC1)NC1=Nc2ncccc2C(=O)NN1"
measured_value = "> 10 µM (inactive)"


###

- System: SK-OV-3
- Experiment notes: NCI tumour cell line growth inhibition, 48 h
Active and inactive are the calls of the source. Rule as the data show it: active = GI50 up to about 1.1 µM and inactive = higher.
Classes used: active, inactive

[[record]]
molecule = "COc1ccc2c3c([nH]c2c1)-c1nc2ccccc2c(=O)n1CC3"
class = "inactive"

[[record]]
molecule = "O=C(/C=C/c1ccc(O)c(O)c1)OCCOC(=O)/C=C/c1ccc(O)c(O)c1"
class = "inactive"

[[record]]
molecule = "N/N=c1\\c2ccccc2c2ccc3c4ccccc4/c(=N\\N)c3c12"
class = "inactive"

[[record]]
molecule = "C=C1C(=O)O[C@@H]2[C@H]1C[C@H](I)[C@@]1(C)CC[C@H](O1)[C@](C)(I)CCCC(C)[C@@H]2O (some centres not stated)"
class = "inactive"

[[record]]
molecule = "Oc1cc(O)c2ccc(-c3ccc(O)c(O)c3)[o+]c2c1"
class = "inactive"

[[record]]
molecule = "CCOC(=O)Nc1cc2c(c(N)n1)N=C(c1ccccc1)[C@H](C)N2 [MIVOBULIN ISETHIONATE]"
class = "inactive"

[[record]]
molecule = "C=C(C)C(=O)OC1CC2=CC(CC3(C)OC3C3OC(=O)C(=C)C13)OC2=O (configuration not stated)"
class = "inactive"

[[record]]
molecule = "CCN(CC)C1Oc2cc3c(cc2C(c2ccc(OC)cc2)C1C)OCO3 (configuration not stated)"
class = "inactive"

[[record]]
molecule = "COc1ccc2c(c1)c(=Cc1ccc(N(C)C)cc1)c1cc(-c3ccccc3)[n+](C)n12"
class = "active"

[[record]]
molecule = "O=c1c2ccccc2n2n1CC(O)C2 (configuration not stated)"
class = "inactive"

[[record]]
molecule = "CC1(C)CC[C@]2(C(=O)O)CC[C@]3(C)[C@H](C(=O)C=C4[C@@]5(C)C=C(C#N)C(=O)C(C)(C)[C@@H]5CC[C@]43C)[C@@H]2C1"
class = "active"

[[record]]
molecule = "O=C(Nc1cccc(F)c1)c1cc2ccc(O)cc2o/c1=N\\c1cccc(F)c1"
class = "inactive"


###

Recorded GI50 values for a group of molecules are listed next.
- Tested on: HL-60
- Experiment notes: NCI tumour cell line growth inhibition, 48 h
Calls of active or inactive are those of the source. Rule as the data show it: active = GI50 up to about 1.1 µM and inactive = higher.
Endpoint label: GI50

[[record]]
molecule = "O=[N+]([O-])c1ccc(/N=N/N2CCCC2)cc1"
endpoint_label = "GI50"
measured_value = "32.2 µM (inactive)"

[[record]]
molecule = "CN1C(=O)C2(C)SC1(c1ccccc1)C1C(=O)N(c3ccccc3)C(=O)C12 (centres undefined)"
endpoint_label = "GI50"
measured_value = "47.1 µM (inactive)"

[[record]]
molecule = "c1ccc(N2CCN(CCCN3CCc4c([nH]c5ccccc45)C3c3cccnc3)CC2)cc1 (centres undefined)"
endpoint_label = "GI50"
measured_value = "20 µM (inactive)"

[[record]]
molecule = "CCOC(=O)c1cc(-c2ccc(OC)c(OC)c2)cn1C"
endpoint_label = "GI50"
measured_value = "> 10 µM (inactive)"

